Tested on: Staphylococcus aureus subsp. aureus (ATCC29213)
Assay: MIC, broth microdilution (CLSI), Staphylococcus aureus ATCC29213
Assay type: cell-based
Details: Staphylococcus aureus, ATCC29213, Table XIII; read-out: S. aureus ATCC 29213 MIC
Where a name gives a salt, the structure may show the parent alone.
PARAMETER: MIC (µg/mL)
// return numeric value only (unit: µg/mL, not printed)

Check out these entries, answers already filled in.
Cc1cccc(C(CCNC2CCN(C(=N)N)CC2)c2cn(C3CCCCC3)c3ccccc23)c1.Cl (stereo not drawn) [Compound 353] yielded MIC of 4

Recorded MIC (compound CC(=O)N1CCC(NCCC(c2cccc(C)c2)c2cn(C3CCCCC3)c3ccccc23)CC1.Cl (stereo not drawn) [Compound 373] ): 8

Item: Cc1cccc(C(CCNCCCN)c2cn(C3CCCCC3)c3ccc(-c4ccncc4)cc23)c1.Cl.Cl (stereo not drawn) [Compound 412] | MIC: 2

The compound listed as NC1CCC(NCCC(c2cccc(OC(F)(F)F)c2)c2cn(CC3CCCCC3)c3ccccc23)CC1 (stereo not drawn) [Compound 173, hydrochloride salt] shows MIC equal to 2

So for Cc1cccc(C(CCNCCN)c2cn(C3CCCCC3)c3ccccc23)c1.Cl.Cl (stereo not drawn) [Compound 347] , the logged MIC turned out to be 8

Continuing:
MIC recorded for this compound, Cc1cccc(C(CC(=O)NC2CCNCC2)c2cn(CC3CCCCC3)c3ccc(C(=O)O)cc23)c1.Cl (stereo not drawn) [Compound 297] , is 32

// MIC value for Cc1cccc(C(CCNCCCN)c2cn(C3CCCCC3)c3ccc(C(=O)O)cc23)c1 (stereo not drawn) [Compound 387] : 128

The compound N[C@H]1CC[C@H](NC2CCC(c3cn(CC4CCCCC4)c4ccc(Br)cc34)CC2)CC1 (single isomer, unassigned) [Compound 266, hydrochloride salt] showed MIC equal to 2

MIC reading for Cc1cccc(-c2ccc3c(c2)c(CCCNCCCN)cn3C2CCCCC2)c1.Cl.Cl [Compound 360] : 4

The compound identified as Cc1cccc(C(CCNCCCN)c2cn(C3CCCCC3)c3ccccc23)c1 (stereo not drawn) [Compound 358] registered its MIC at 8

src = patent US20210246115A1
